All values here come from PubChem BioAssay.

Assay system: Pro-neuregulin-1, membrane-bound isoform (Homo sapiens)
Assay comment: NRG1 binders on small-molecule microarrays, primary screen, psychiatric disease protein project, biochemical, small-molecule microarray, fluorescence 635/667 (AID 1075);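 further: score combines 667 nm spot fluorescence with signal to noise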
Measurement context: NRG1 binding, 635 nm fluorescence, higher = more signal
Quantity kind: composite z-score
A bare number is all that is needed in reply.

Completed entries (count: 3):
{"Molecule smiles": "CC(=O)NCCCC[C@@H]1NC(=O)[C@H]2C[C@@H](C(=O)NCCCCCCN(C)C)[C@@H](c3cccc(OCCO)c3)N2C1=O", "composite z-score": 0.681}
{"Molecule smiles": "CC(C)CN1C(=O)[C@@]2(Cc3ccccc31)c1ccccc1C(=O)N(C1CCCCC1)[C@H]2c1ccc(CO)cc1", "composite z-score": -0.388}
{"Molecule smiles": "O=C1O[C@H](c2ccccc2)[C@H](c2ccccc2)N2[C@H]1[C@@H](C(=O)NC[C@H](O)c1ccccc1)[C@]1(C(=O)Nc3ccc(C#CC4=CCCCC4)cc31)[C@H]2c1ccc(OCCO)cc1", "composite z-score": 0.413}

Switching to the query record.
Exercise: Would you kindly share the measured composite z-score for `COCCOC(=O)N1C(=O)[C@@]2(c3cc(C#CC4=CCCCC4)ccc31)[C@H](C(=O)NC[C@H](O)c1ccccc1)[C@H]1C(=O)O[C@H](c3ccccc3)[C@H](c3ccccc3)N1[C@@H]2c1ccc(OCCO)cc1` ?
Key: 1.12

---

Test system: Lefty1
Assay comment: Lefty1 binders on small-molecule microarrays, primary screen, biochemical, small-molecule microarray, 635/667 nm fluorescence (AID 1139)
Measurement context: small-molecule microarray binding, fluorescence 635/667; higher = more signal
Quantity kind: composite z-score
Give the figure only, with no unit attached.

Exercise: What composite z-score value was documented for this compound, `Cc1ccc(S(=O)(=O)N2[C@@H](c3ccccc3)C(C(=O)O)=CC[C@H]2c2ccccc2)cc1` ?
Key: 0.0236

Exercise: Reported composite z-score, compound `COC(=O)[C@@]1(Cc2ccc(OC)cc2)[C@H]2c3cc(C(=O)N(C)C)n(Cc4ccc(C)c(F)c4F)c3C[C@H]2CN1C(=O)c1ccccc1` : ____
Key: -0.826

Exercise: # composite z-score lookup, item `CC(C)C[C@@H]1NC(=O)[C@H]2C[C@@H](C(=O)NCCCCCC[N+](C)(C)C)[C@@H](c3ccc(O)cc3)N2C1=O`
Key: 0.467

Exercise: Requested read-out: composite z-score. Entry: `C=CCNC(=O)[C@H]1[C@@H]2C(=O)O[C@@H](c3ccccc3)[C@@H](c3ccccc3)N2[C@@H](c2ccc(O)cc2)[C@]12C(=O)Nc1ccc(C#CCNC(N)=O)cc12`
Key: -0.886

Exercise: I'd like to know its composite z-score. The compound in question is `O=C(CS)NCCCCCNC(=O)[C@H]1C[C@H]2C(=O)N3CCC[C@H]3C(=O)N2[C@H]1c1ccc(O)cc1`
Key: -0.0421

Exercise: Reported composite z-score for `CCCCO[C@H]1C[C@H]2C(Br)=C[C@@]1(CO)C(=O)[C@]21CO1` : what is it?
Key: 0.641

Exercise: Value lookup for composite z-score; key = `[N-]=[N+]=NCc1ccccc1C[C@]1(C(=O)N2CCCCC2)N=C(c2ccc(OCCCO)cc2)O[C@H]1c1ccccc1CN=[N+]=[N-]`
Key: 0.453

Exercise: State the recorded composite z-score for this entry: `C[C@]1(C(=O)NCCN2CCOCC2)c2ccccc2C(=O)N(Cc2ccccc2)[C@H]1c1ccc(CO)cc1`
Key: -0.718

Exercise: // returns reported composite z-score for input `C=C(C(=O)CC[C@H](OC(=O)c1ccccc1-c1ccccc1C(=O)O)c1ccc(CO)o1)C(C)C`
Key: 1.04
